# assay-system: Insulin receptor (Homo sapiens)
# Sequence (P06213 28-758 limits assumed): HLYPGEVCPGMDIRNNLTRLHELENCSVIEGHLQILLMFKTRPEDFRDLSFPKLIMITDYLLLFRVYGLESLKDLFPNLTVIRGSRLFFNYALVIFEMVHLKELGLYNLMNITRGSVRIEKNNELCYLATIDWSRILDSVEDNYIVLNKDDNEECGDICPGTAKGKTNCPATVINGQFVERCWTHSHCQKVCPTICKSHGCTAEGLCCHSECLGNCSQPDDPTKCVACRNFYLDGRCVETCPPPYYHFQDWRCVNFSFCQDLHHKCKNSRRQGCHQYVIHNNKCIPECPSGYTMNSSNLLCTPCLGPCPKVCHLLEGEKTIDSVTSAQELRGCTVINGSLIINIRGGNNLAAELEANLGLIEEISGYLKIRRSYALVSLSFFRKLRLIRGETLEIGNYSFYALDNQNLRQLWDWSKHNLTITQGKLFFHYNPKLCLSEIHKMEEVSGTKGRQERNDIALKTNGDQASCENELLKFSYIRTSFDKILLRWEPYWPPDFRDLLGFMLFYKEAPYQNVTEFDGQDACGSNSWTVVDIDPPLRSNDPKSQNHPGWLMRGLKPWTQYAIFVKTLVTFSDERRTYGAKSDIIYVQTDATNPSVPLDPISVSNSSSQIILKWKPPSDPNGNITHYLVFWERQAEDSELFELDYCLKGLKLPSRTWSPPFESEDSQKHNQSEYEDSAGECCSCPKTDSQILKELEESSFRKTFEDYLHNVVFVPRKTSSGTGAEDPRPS
# Sequence (P06213 763-1382 limits assumed): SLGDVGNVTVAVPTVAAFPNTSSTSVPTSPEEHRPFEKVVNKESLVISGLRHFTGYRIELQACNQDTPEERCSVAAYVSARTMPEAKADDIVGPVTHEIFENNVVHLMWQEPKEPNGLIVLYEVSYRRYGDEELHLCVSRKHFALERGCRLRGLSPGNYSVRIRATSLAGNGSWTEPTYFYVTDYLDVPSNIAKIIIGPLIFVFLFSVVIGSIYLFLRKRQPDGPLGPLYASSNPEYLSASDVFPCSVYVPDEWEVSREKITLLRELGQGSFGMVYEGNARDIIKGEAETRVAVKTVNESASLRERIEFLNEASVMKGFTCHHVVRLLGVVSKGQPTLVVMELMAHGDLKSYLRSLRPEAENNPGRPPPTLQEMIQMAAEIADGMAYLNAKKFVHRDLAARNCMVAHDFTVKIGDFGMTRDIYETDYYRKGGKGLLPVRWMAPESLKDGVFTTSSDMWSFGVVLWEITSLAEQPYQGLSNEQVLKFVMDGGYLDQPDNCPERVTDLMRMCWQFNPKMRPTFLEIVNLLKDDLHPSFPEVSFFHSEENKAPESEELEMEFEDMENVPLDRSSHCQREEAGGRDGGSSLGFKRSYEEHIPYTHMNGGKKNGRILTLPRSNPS
value-kind: EC50

>  <molecule>
Cc1ccc(NC(=O)c2cccc(C(F)(F)F)c2)cc1N1Cc2cnc(N)nc2N(C)C1=O

>  <reported>
> 2000 nM

$$$$

* * *

# assay-system: ALK tyrosine kinase receptor (Homo sapiens)
# Sequence (Q9UM73 whole entry): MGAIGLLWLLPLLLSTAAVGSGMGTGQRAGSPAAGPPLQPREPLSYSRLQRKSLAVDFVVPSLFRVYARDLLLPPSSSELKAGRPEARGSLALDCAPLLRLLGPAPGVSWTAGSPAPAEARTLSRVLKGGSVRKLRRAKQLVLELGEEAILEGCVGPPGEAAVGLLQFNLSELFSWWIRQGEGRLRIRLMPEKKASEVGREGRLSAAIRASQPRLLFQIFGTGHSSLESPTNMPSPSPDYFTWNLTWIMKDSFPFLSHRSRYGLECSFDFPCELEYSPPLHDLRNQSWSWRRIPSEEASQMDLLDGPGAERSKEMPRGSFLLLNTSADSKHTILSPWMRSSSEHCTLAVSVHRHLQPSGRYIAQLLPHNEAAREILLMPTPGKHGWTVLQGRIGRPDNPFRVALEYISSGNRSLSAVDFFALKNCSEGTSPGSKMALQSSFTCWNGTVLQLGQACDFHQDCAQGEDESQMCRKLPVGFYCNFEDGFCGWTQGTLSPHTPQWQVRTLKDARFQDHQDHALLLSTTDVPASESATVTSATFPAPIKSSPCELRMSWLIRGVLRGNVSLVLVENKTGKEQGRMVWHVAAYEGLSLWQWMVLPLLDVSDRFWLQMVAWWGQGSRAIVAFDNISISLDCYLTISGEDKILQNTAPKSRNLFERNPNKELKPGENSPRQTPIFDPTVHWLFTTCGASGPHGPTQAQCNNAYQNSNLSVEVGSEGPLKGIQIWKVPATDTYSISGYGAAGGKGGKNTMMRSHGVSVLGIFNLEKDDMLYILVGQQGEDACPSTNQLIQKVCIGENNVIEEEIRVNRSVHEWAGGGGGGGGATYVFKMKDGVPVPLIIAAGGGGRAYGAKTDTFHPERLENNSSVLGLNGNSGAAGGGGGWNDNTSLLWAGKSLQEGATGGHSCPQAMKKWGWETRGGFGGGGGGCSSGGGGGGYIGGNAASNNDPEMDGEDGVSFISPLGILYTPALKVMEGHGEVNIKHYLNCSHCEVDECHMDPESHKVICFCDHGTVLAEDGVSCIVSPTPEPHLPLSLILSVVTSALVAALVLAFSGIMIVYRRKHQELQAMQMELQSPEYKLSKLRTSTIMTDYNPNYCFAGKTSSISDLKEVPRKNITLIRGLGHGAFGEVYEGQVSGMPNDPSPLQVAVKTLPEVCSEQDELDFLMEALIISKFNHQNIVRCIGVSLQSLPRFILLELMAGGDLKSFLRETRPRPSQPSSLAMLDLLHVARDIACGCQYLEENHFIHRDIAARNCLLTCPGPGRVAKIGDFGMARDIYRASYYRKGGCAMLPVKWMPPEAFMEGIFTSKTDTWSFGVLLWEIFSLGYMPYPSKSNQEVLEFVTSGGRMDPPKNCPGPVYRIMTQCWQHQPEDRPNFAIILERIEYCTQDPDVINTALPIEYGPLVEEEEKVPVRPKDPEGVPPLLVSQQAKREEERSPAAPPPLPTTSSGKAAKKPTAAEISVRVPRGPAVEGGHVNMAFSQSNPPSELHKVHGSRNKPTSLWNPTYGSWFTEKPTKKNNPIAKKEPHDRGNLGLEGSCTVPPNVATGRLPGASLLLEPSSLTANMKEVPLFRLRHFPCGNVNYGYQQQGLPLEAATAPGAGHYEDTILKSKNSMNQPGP
pEC50: −log10 of the molar value.
value-kind: pEC50

>  <molecule>
Cc1ccc(NC(=O)c2cccc(C(F)(F)F)c2)cc1N1Cc2cnc(N)nc2N(C)C1=O

>  <reported>
< 5.70

$$$$

* * *

# assay-system: UniProt P04629
# Sequence (P04629 whole entry): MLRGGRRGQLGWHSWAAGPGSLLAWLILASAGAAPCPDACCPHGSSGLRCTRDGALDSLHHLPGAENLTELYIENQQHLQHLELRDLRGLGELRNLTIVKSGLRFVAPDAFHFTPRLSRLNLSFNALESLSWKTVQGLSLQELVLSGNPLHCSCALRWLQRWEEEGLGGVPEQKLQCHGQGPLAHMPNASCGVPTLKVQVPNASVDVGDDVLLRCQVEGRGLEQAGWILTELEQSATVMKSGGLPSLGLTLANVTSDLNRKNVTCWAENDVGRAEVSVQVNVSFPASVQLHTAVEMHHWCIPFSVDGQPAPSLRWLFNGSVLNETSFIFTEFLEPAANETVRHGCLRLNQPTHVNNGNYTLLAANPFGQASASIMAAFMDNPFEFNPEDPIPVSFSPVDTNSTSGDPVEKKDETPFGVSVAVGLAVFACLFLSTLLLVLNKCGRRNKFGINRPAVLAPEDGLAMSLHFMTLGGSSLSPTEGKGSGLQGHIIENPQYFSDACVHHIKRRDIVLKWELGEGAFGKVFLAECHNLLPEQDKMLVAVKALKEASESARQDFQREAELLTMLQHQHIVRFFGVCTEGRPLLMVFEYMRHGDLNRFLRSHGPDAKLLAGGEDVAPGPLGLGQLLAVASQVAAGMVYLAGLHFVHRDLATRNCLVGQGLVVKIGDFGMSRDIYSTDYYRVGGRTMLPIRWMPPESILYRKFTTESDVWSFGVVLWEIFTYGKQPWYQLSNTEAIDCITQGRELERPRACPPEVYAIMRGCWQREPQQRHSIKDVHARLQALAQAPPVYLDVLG
value-kind: EC50

>  <molecule>
Cc1ccc(NC(=O)c2cccc(C(F)(F)F)c2)cc1N1Cc2cnc(N)nc2N(C)C1=O

>  <reported>
> 2000 nM

$$$$
